Exercise: state measured GI50 for each of the compounds provided.
System: MOLT-4
testDescription: NCI tumour cell line growth inhibition, 48 h
Calls of active or inactive are those of the source. No stated cut-off is given here; in the data, active = GI50 up to about 1.1 µM and inactive = higher.

Incoming: Report GI50 on MOLT-4 for this entry: CCO[C@@H]1CCC([S+]([O-])c2ccc(C)cc2)=CO1 (stereo partly drawn)
Outgoing: 52.1 µM (inactive)

Incoming: Report GI50 on MOLT-4 for this entry: C/C(=C\CO)CC[C@@H]1[C@@]2(C)CCCC(C)(C)[C@@H]2CC[C@@]1(C)O
Outgoing: 51.8 µM (inactive)

Incoming: Report GI50 on MOLT-4 for this entry: COc1cc([C@@H]2c3cc4c(cc3[C@@H](c3c(O)cc(O)c5c3O[C@H](c3ccc(O)c(O)c3)[C@H](OC(=O)c3cc(O)c(O)c(O)c3)C5)[C@H]3COC(=O)[C@H]23)OCO4)cc(OC)c1OC
Outgoing: 7.74 µM (inactive)

Incoming: Report GI50 on MOLT-4 for this entry: O=C(OCc1c(-c2ccccc2)nn(-c2ccccc2)c1COC(=O)Oc1ccccc1)Oc1ccccc1
Outgoing: > 100 µM (inactive)

Incoming: Report GI50 on MOLT-4 for this entry: C[C@]12CC[C@@H]3c4ccc(OC(=O)c5ccccc5)cc4CC[C@H]3[C@@H]1CC[C@@H]2Oc1c2ccccc2nc2ccccc12
Outgoing: 8.87 µM (inactive)

Incoming: Report GI50 on MOLT-4 for this entry: Nc1cccc(C(=O)/C=C/c2ccccc2O)c1
Outgoing: > 100 µM (inactive)

Incoming: Report GI50 on MOLT-4 for this entry: N#Cc1c(-c2ccc(Cl)cc2)c2c([nH]c1=O)-c1ccccc1SC2
Outgoing: 27.4 µM (inactive)

Incoming: Report GI50 on MOLT-4 for this entry: OCc1cc2c(ccc3sc4ccc5sc6ccc7ncccc7c6c5c4c32)s1
Outgoing: 11.5 µM (inactive)
